Numbers sourced from BindingDB's records for doi:10.1016/j.bmcl.2004.02.040.

target: cGMP-specific 3',5'-cyclic phosphodiesterase PDE5 (Oryctolagus cuniculus)
assay.summary: Inhibition of phosphodiesterase 5 of rabbit platelets
readout.name: IC50 (nM)

- molecular.string: "CCCOc1ccc(S(=O)(=O)N2CCC(CCP(=O)(O)OCC)CC2)cc1-c1nc2c(CCC)nn(C)c2c(=O)[nH]1"
  unit.text: "nM"
  result.number: 0.29
